Sourced from patent US20180339057A1

assay_target: T1, human MIC-1 receptor (hGFRAL, GDNF family receptor alpha like), full length (human, UniProt Q6UXV0 19-394)
T1 sequence (looked up): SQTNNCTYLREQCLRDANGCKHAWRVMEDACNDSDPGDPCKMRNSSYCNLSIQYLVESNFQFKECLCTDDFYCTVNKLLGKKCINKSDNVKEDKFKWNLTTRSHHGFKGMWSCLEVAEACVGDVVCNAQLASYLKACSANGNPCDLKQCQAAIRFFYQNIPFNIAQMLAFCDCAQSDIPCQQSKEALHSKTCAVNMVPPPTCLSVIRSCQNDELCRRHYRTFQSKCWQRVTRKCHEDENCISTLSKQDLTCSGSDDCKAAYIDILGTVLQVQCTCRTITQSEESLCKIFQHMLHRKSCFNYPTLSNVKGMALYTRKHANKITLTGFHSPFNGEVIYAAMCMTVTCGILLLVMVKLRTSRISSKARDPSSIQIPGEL
method: cell-based or functional assay
recorded_metric: pERK EC50 (nM)
One number for each entry, in nM.

MIC-1(R2A,N3E,P11E) (ligand) AAEGDHCPLGEGRCCRLHTVRASLEDLGWADWVLSPREVQVTMCIGACPSQFRAANMHAQIKTSLHRLKPDTVPAPCCVPASYNPMVLIQKTDTGVSLQTYDDLLAKDCHCI    0.4

Your task in this section: give pERK EC50 (nM) for each listed record.
1. (SEPATSGSETPG)2-MIC-1-Δ1-3 (ligand) SEPATSGSETPGSEPATSGSETPGGDHCPLGPGRCCRLHTVRASLEDLGWADWVLSPREVQVTMCIGACPSQFRAANMHAQIKTSLHRLKPDTVPAPCCVPASYNPMVLIQKTDTGVSLQTYDDLLAKDCHCI
2. MIC-1(R2A,N3E,H18E) (ligand) AAEGDHCPLGPGRCCRLETVRASLEDLGWADWVLSPREVQVTMCIGACPSQFRAANMHAQIKTSLHRLKPDTVPAPCCVPASYNPMVLIQKTDTGVSLQTYDDLLAKDCHCI

**A:**
[0.4, 0.5]

Field pERK EC50 (nM) (entry AASPAGSPTSTEEGTSESATPESGPG-MIC-1-Δ1-3 (ligand) AASPAGSPTSTEEGTSESATPESGPGGDHCPLGPGRCCRLHTVRASLEDLGWADWVLSPREVQVTMCIGACPSQFRAANMHAQIKTSLHRLKPDTVPAPCCVPASYNPMVLIQKTDTGVSLQTYDDLLAKDCHCI ) reads 0.7
